The values you see were collected from the RNAGym collection of RNA variant scans (doi:10.1073/pnas.2313332121).

B1: TPR t1 (parent)
chain: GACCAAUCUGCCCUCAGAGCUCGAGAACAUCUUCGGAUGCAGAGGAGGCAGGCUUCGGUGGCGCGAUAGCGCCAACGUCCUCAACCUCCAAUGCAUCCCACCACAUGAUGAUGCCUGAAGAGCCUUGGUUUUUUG

Variants of: B1
Experiment: polymerase ribozyme fitness, log enrichment relative to wild type (log ratio); higher = more active; in vitro selection for triplet polymerase activity
Label true (1) when polymerase ribozyme fitness (log ratio) is at or above -2; otherwise label false (0).

INSERT INTO results (mutation_annotation, qualitative_label) VALUES
  ('C12G U96G G117U', 'false (0)'),
  ('C15U U54A C80A', 'false (0)'),
  ('A27U C56G A91G U131A U133G', 'false (0)'),
  ('G52A G57C', 'true (1)'),
  ('C15U C98U', 'false (0)'),
  ('C62U G120A', 'true (1)');

For this variant, is measured polymerase ribozyme fitness (log ratio) -2 or higher? A46U G93U false (0)

For this variant, is measured polymerase ribozyme fitness (log ratio) -2 or higher? G69U C123A true (1)

For this variant, is measured polymerase ribozyme fitness (log ratio) -2 or higher? C12G U33G C70U U87G A118U U125A false (0)
